experiment-description: Plasma pharmacokinetics of 17-DMAG by HPLC-MS, non-compartmental analysis
Format: in vivo, human
measurement-setup: human, iv, 2.5 mg/m^2
experimental-readout: half-life (h)
Please reply with the bare figure in h and do not write the unit itself.

q: // Input: `CO[C@H]1/C=C\C=C(/C)C(=O)NC2=CC(=O)C(NCCN(C)C)=C(C[C@@H](C)C[C@H](OC)[C@H](O)[C@@H](C)/C=C(\C)[C@@H]1OC(N)=O)C2=O` . Output its half-life only.
a: 25.2

----------
experiment-description: Plasma pharmacokinetics of 17-DMAG by HPLC-MS, non-compartmental analysis
Assay type: in vivo, human
measurement-setup: human, iv, 20 mg/m^2
experimental-readout: AUC (µM·h)
Enter your answer as a number in µM·h; do not include the unit.

q: Please supply the value of reported AUC for the item `CO[C@H]1/C=C\C=C(/C)C(=O)NC2=CC(=O)C(NCCN(C)C)=C(C[C@@H](C)C[C@H](OC)[C@H](O)[C@@H](C)/C=C(\C)[C@@H]1OC(N)=O)C2=O`
a: 3.73

----------
experiment-description: Plasma pharmacokinetics of 17-DMAG by HPLC-MS, non-compartmental analysis
Type: in vivo, human
measurement-setup: human, iv, 5 mg/m^2
experimental-readout: clearance (mL/min)
Answer with a number only, understood to be in mL/min.

q: State its clearance for this compound: CO[C@H]1/C=C\C=C(/C)C(=O)NC2=CC(=O)C(NCCN(C)C)=C(C[C@@H](C)C[C@H](OC)[C@H](O)[C@@H](C)/C=C(\C)[C@@H]1OC(N)=O)C2=O [17-DMAG]
a: 858

----------
experiment-description: Plasma pharmacokinetics of 17-DMAG by HPLC-MS, non-compartmental analysis
Format: in vivo, human
measurement-setup: human, iv, 106 mg/m^2
experimental-readout: AUC (µM·h)
Your answer is read as µM·h, so omit the unit and give the number.

q: Return AUC for the following molecule: `CO[C@H]1/C=C\C=C(/C)C(=O)NC2=CC(=O)C(NCCN(C)C)=C(C[C@@H](C)C[C@H](OC)[C@H](O)[C@@H](C)/C=C(\C)[C@@H]1OC(N)=O)C2=O`
a: 32.3

----------
experiment-description: Plasma pharmacokinetics of 17-DMAG by HPLC-MS, non-compartmental analysis
Type: in vivo, human
measurement-setup: human, iv, 5 mg/m^2
experimental-readout: half-life (h)
Number in h, nothing else.

q: Output measured half-life for this item: CO[C@H]1/C=C\C=C(/C)C(=O)NC2=CC(=O)C(NCCN(C)C)=C(C[C@@H](C)C[C@H](OC)[C@H](O)[C@@H](C)/C=C(\C)[C@@H]1OC(N)=O)C2=O [17-DMAG]
a: 18.4

----------
experiment-description: Plasma pharmacokinetics of 17-DMAG by HPLC-MS, non-compartmental analysis
Assay type: in vivo, human
measurement-setup: human, iv, 40 mg/m^2
experimental-readout: clearance (mL/min)
Return type: number; implicit unit mL/min.

q: Return clearance for the following molecule: `CO[C@H]1/C=C\C=C(/C)C(=O)NC2=CC(=O)C(NCCN(C)C)=C(C[C@@H](C)C[C@H](OC)[C@H](O)[C@@H](C)/C=C(\C)[C@@H]1OC(N)=O)C2=O`
a: 322

----------
experiment-description: Plasma pharmacokinetics of 17-DMAG by HPLC-MS, non-compartmental analysis
Type: in vivo, human
measurement-setup: human, iv, 80 mg/m^2
experimental-readout: Cmax (nM)
The response must be a number in nM with no trailing unit.

q: Please give the documented Cmax of CO[C@H]1/C=C\C=C(/C)C(=O)NC2=CC(=O)C(NCCN(C)C)=C(C[C@@H](C)C[C@H](OC)[C@H](O)[C@@H](C)/C=C(\C)[C@@H]1OC(N)=O)C2=O [17-DMAG]
a: 2680
